target: HLA-B*44:03; assay: IEDB peptide-MHC binding, purified MHC/competitive/radioactivity; filed as Kd, often an IC50 or EC50 that approximates it; bounds were set here for any values at or beyond the usual limits of such assays; conditions: source organism: Influenza A virus
pKd: −log10 of the molar value.
Recorded pKd values for a group of sequences are listed next.
QUANTITY KIND: pKd

INSERT INTO measurements (sequence_code, assayed_system, sign, measured_result) VALUES
  ('TEVETYVLSI', 'HLA-B*44:03', '=', 6.61),
  ('QEIRTFSFQL', 'HLA-B*44:03', '=', 6.37),
  ('GERQNATEI', 'HLA-B*44:03', '≤', 5.00),
  ('SEQAAEAMEV', 'HLA-B*44:03', '=', 5.12);

----------
Recorded pKd values for a group of sequences are listed next.
biological target: HLA-A*02:06; experiment: IEDB peptide-MHC binding, purified MHC/competitive/radioactivity; filed as Kd, often an IC50 or EC50 that approximates it; bounds were set here for any values at or beyond the usual limits of such assays; settings: source organism: Influenza A virus
pKd: −log10 of the molar value.
QUANTITY KIND: pKd

INSERT INTO measurements (sequence_code, sign, measured_result) VALUES
  ('FQVDCFLWHV', '≥', 9.00),
  ('NMLSTVLGV', '=', 8.52),
  ('CLPACVYGL', '=', 7.02),
  ('FQGRGVFEL', '=', 8.15);

----------
biological target: HLA-B*53:01; assay: IEDB peptide-MHC binding, purified MHC/competitive/radioactivity; filed as Kd, often an IC50 or EC50 that approximates it; bounds were set here for any values at or beyond the usual limits of such assays; conditions: source organism: Influenza A virus
pKd: −log10 of the molar value.
QUANTITY KIND: pKd

INSERT INTO results (sequence_code, measured_result) VALUES
  ('LPRRSGAAGA', '≤ 5.00');

----------
target: HLA-B*54:01; experiment: IEDB peptide-MHC binding, purified MHC/competitive/radioactivity; filed as Kd, often an IC50 or EC50 that approximates it; bounds were set here for any values at or beyond the usual limits of such assays; conditions: source organism: Influenza A virus
QUANTITY KIND: Kd (µM)

INSERT INTO assay_data (sequence_code, quantity_kind, u, measured_result) VALUES
  ('LPRRSGAAGA', 'Kd', 'µM', 0.047);

----------
molecular target: HLA-A*02:02; test: IEDB peptide-MHC binding, purified MHC/competitive/radioactivity; filed as Kd, often an IC50 or EC50 that approximates it; bounds were set here for any values at or beyond the usual limits of such assays; conditions: source organism: Influenza A virus
QUANTITY KIND: Kd

INSERT INTO results (sequence_code, assayed_system, measured_result) VALUES
  ('FQGRGVFEL', 'HLA-A*02:02', '7 nM'),
  ('FQVDCFLWHV', 'HLA-A*02:02', '4 nM'),
  ('CLPACVYGL', 'HLA-A*02:02', '4 nM'),
  ('NMLSTVLGV', 'HLA-A*02:02', '5 nM');

----------
Recorded Kd values for a group of sequences are listed next.
molecular target: HLA-B*40:01; assay: IEDB peptide-MHC binding, purified MHC/competitive/radioactivity; filed as Kd, often an IC50 or EC50 that approximates it; bounds were set here for any values at or beyond the usual limits of such assays; details: source organism: Influenza A virus
QUANTITY KIND: Kd (nM)

INSERT INTO assay_data (sequence_code, quantity_kind, measured_result) VALUES
  ('TEVETYVLSI', 'Kd', 133),
  ('QEIRTFSFQL', 'Kd', 135),
  ('GERQNATEI', 'Kd', 199),
  ('SEQAAEAMEV', 'Kd', 2670);

----------
target: HLA-A*02:03; assay: IEDB peptide-MHC binding, purified MHC/competitive/radioactivity; filed as Kd, often an IC50 or EC50 that approximates it; bounds were set here for any values at or beyond the usual limits of such assays; settings: source organism: Influenza A virus
QUANTITY KIND: Kd (µM)

INSERT INTO results (sequence_code, quantity_kind, u, measured_result) VALUES
  ('NMLSTVLGV', 'Kd', 'µM', 0.011),
  ('FQVDCFLWHV', 'Kd', 'µM', 0.003),
  ('CLPACVYGL', 'Kd', 'µM', 0.143),
  ('FQGRGVFEL', 'Kd', 'µM', 0.307);

----------
target: HLA-A*68:02; test: IEDB peptide-MHC binding, purified MHC/competitive/radioactivity; filed as Kd, often an IC50 or EC50 that approximates it; bounds were set here for any values at or beyond the usual limits of such assays; details: source organism: Influenza A virus
QUANTITY KIND: Kd (nM)

INSERT INTO assay_data (sequence_code, assayed_system, sign, measured_result) VALUES
  ('CLPACVYGL', 'HLA-A*68:02', '=', 3770),
  ('FQGRGVFEL', 'HLA-A*68:02', '≥', 10000),
  ('FQVDCFLWHV', 'HLA-A*68:02', '=', 219),
  ('NMLSTVLGV', 'HLA-A*68:02', '=', 1060);

----------
biological target: HLA-A*33:01; assay: IEDB peptide-MHC binding, purified MHC/competitive/radioactivity; filed as Kd, often an IC50 or EC50 that approximates it; bounds were set here for any values at or beyond the usual limits of such assays; details: source organism: Influenza A virus
Recorded log10 of Kd values for a group of sequences are listed next.
QUANTITY KIND: log10 of Kd (log10 of the value in nM)

INSERT INTO measurements (sequence_code, quantity_kind, measured_result) VALUES
  ('RLFFKCIYRR', 'log10 of Kd', 2.38),
  ('GTFEFTSFFY', 'log10 of Kd', 3.73),
  ('SVQRNLPFER', 'log10 of Kd', 2.51),
  ('ASCMGLIYNR', 'log10 of Kd', 2.65),
  ('SVQPTFSVQR', 'log10 of Kd', 2.26),
  ('SFSFGGFTFK', 'log10 of Kd', 1.93);

----------
molecular target: HLA-A*68:01; experiment: IEDB peptide-MHC binding, purified MHC/competitive/radioactivity; filed as Kd, often an IC50 or EC50 that approximates it; bounds were set here for any values at or beyond the usual limits of such assays; conditions: source organism: Influenza A virus
QUANTITY KIND: Kd (nM)

INSERT INTO measurements (sequence_code, assayed_system, u, measured_result) VALUES
  ('ASCMGLIYNR', 'HLA-A*68:01', 'nM', 391),
  ('SVQRNLPFER', 'HLA-A*68:01', 'nM', 19),
  ('KLVGINMSKK', 'HLA-A*68:01', 'nM', 1610),
  ('SVQPTFSVQR', 'HLA-A*68:01', 'nM', 84),
  ('RLFFKCIYRR', 'HLA-A*68:01', 'nM', 88),
  ('VLRGFLILGK', 'HLA-A*68:01', 'nM', 1160),
  ('KFLPDLYDYK', 'HLA-A*68:01', 'nM', 507),
  ('GTFEFTSFFY', 'HLA-A*68:01', 'nM', 100);

----------
target: HLA-A*30:02; test: IEDB peptide-MHC binding, purified MHC/competitive/radioactivity; filed as Kd, often an IC50 or EC50 that approximates it; bounds were set here for any values at or beyond the usual limits of such assays; details: source organism: Influenza A virus
pKd: −log10 of the molar value.
QUANTITY KIND: pKd

INSERT INTO results (sequence_code, sign, measured_result) VALUES
  ('FYRYGFVANF', '≤', 5.00),
  ('FYIQMCTEL', '≤', 5.00),
  ('KSCLPACVY', '=', 7.37),
  ('YSHGTGTGY', '=', 6.88);

----------
target: HLA-A*31:01; experiment: IEDB peptide-MHC binding, purified MHC/competitive/radioactivity; filed as Kd, often an IC50 or EC50 that approximates it; bounds were set here for any values at or beyond the usual limits of such assays; conditions: source organism: Influenza A virus
pKd: −log10 of the molar value.
QUANTITY KIND: pKd

INSERT INTO results (sequence_code, quantity_kind, measured_result) VALUES
  ('SVQRNLPFER', 'pKd', 6.98),
  ('ASCMGLIYNR', 'pKd', 8.15),
  ('GTFEFTSFFY', 'pKd', 6.62),
  ('KFLPDLYDYK', 'pKd', 5.62),
  ('VLRGFLILGK', 'pKd', 7.07),
  ('RLFFKCIYRR', 'pKd', 8.30),
  ('SVQPTFSVQR', 'pKd', 7.68),
  ('KLVGINMSKK', 'pKd', 6.29);

These entries and their values trace back to the Immune Epitope Database (IEDB).
